TARGET SYSTEM: T1, genetically modified and chemically inactivated C. difficile toxoid A (Clostridium difficile, UniProt P16154 2-2710)
T1 construct: also called TxdA; the toxoid
TEST PROTOCOL: ITC
pKd: −log10 of the molar value.
The entries below come with measured pKd values attached.
MEASUREMENT NAME: pKd

[[record]]
binder = "hCDIFA-56 (antibody, V domains shown) VH: QVQLVQSGAEVKKPGASVKVSCKVSGYTLPELSMHWVRQAPGKGLEWMGGFDPEDDDTIYAQKFQGRVTMTEDTSTDTAYLELSSLRSEDTAVYYCATDSSPLYNENYFGSAAFDVWGQGTTVTVSS VL: AIRMTQSPSSLSASVGDRVTITCRASQGISTYLAWYQQKPGKAPKLLLYAASRLESGVPSRFSGSGSGTDYTLTINSLQPEDFATYYCQQYDRMPRTFGQGTKVEIKR"
measurement_name = "pKd"
test_result = 8.30

[[record]]
binder = "hCDIFA-45 (antibody, V domains shown) VH: QVQLVQSGPEVRKPGTSVKFSCKASGFTFTSAAMQWVRQARGQRLEWIGWIVVDSGNTNYAQKFQERVTITRDMSTSTVYMELSSLRSEDTAMYYCAASRGIVGTRGLFDSWGQGTLVTVSS VL: EIVLTQSPSSLSSSVGDRVTITCRASQSIRNYLNWYQQKPGKAPKLLIYGASSLQSGVPPRFSGSGFGTDFTLTISNLQPEDFASYSCQQTYSTPLTFGGGTKLEIKR"
measurement_name = "pKd"
test_result = 9.52


Sourced from patent US20230218735A1
